Experimental details: Multi-component pharmacokinetics in rat plasma after oral administration of RB, RPA or RB-RPA extracts (UPLC-HRMS, non-compartmental analysis)
Assay type: in vivo, Sprague-Dawley rats
Details: male, Sprague-Dawley, rat, plasma, po, 45 g/kg, rat plasma, oral administration of mixed extracts RB-RPA, mean ± SD, n = 7
# reported AUC(0-inf); entries follow
Give just the numeric value; ng·h/mL need not be written.

>  <Molecule>
C[C@@]12C[C@@]3(O)O[C@@H](O1)[C@]1(COC(=O)c4ccccc4)[C@H]3C[C@@]12O[C@@H]1O[C@H](CO)[C@@H](O)[C@H](O)[C@H]1O [Paeoniflorin]

>  <Result units>
ng·h/mL

>  <Quantitative readout>
7170

$$$$

// AUC(0-inf) value for COC(=O)c1cc(O)c(O)c(O)c1 [Methyl gallate] : 213

* * *

Experimental details: Multi-component pharmacokinetics in rat plasma after oral administration of RB, RPA or RB-RPA extracts (UPLC-HRMS, non-compartmental analysis)
Format: in vivo, Sprague-Dawley rats
Details: rat plasma, oral RB-RPA mixed extracts (45 g-herb/kg RB + 45 g-herb/kg RPA), mean ± SD, n = 7
Measured property: AUC0-t (ng·h/mL)
Provide only the numeric value, understood in ng·h/mL.

// known answers, use as guide
>  <Molecule>
CC1(C)CC[C@]23CO[C@@]4(C=C[C@@H]5[C@@]6(C)CC[C@H](O)C(C)(C)[C@@H]6CC[C@@]5(C)[C@]4(C)C[C@@H]2O)[C@@H]3C1

>  <Result units>
ng·h/mL

>  <AUC0-t>
40.24

$$$$
>  <Molecule>
C[C@H]1O[C@@H](O[C@H]2CC[C@@]3(C)[C@@H](CC[C@]4(C)[C@@H]3C=CC3=C5CC(C)(C)CC[C@]5(CO)[C@H](O)C[C@]34C)[C@]2(C)CO)[C@H](O)[C@@H](O[C@@H]2O[C@H](CO)[C@@H](O)[C@H](O)[C@H]2O)[C@H]1O

>  <Result units>
ng·h/mL

>  <AUC0-t>
98.63

$$$$
>  <Molecule>
CC1(C)CC[C@]23CO[C@@]4(C=C[C@@H]5[C@@]6(C)CC[C@H](O)[C@@](C)(CO)[C@@H]6CC[C@@]5(C)[C@]4(C)C[C@@H]2O)[C@@H]3C1

>  <Result units>
ng·h/mL

>  <AUC0-t>
301.08

$$$$

Could you now consider this next molecule?
Lookup result for C[C@@H]1O[C@@H](O[C@@H]2[C@H](O)[C@@H](O)[C@H](O[C@H]3CC[C@@]4(C)C(CC[C@]5(C)C4C=C[C@]46OC[C@@]7(CCC(C)(C)CC74)[C@@H](O)C[C@]65C)C3(C)C)O[C@@H]2CO[C@@H]2O[C@H](CO)[C@@H](O)[C@H](O)[C@H]2O)[C@H](O)[C@H](O)[C@H]1O (stereo partly shown) ; measured AUC0-t: 51.33

* * *

Each entry below carries its recorded AUC0-t.
Experimental details: Multi-component pharmacokinetics in rat plasma after oral administration of RB, RPA or RB-RPA extracts (UPLC-HRMS, non-compartmental analysis)
Type: in vivo, Sprague-Dawley rats
Details: rat plasma, oral RB-RPA mixed extracts (45 g-herb/kg RB + 45 g-herb/kg RPA), mean ± SD, n = 7
# number only, unit ng·h/mL dropped from output

>  <Compound>
C[C@H]1O[C@@H](O[C@H]2CC[C@@]3(C)[C@@H](CC[C@]4(C)[C@@H]3C=CC3=C5CC(C)(C)CC[C@]5(CO)[C@H](O)C[C@]34C)[C@]2(C)CO)[C@H](O)[C@@H](O)[C@H]1O [Prosaikogenin D]

>  <Quantitative readout>
32.79

$$$$

Just so you know, measured AUC0-t for CC(=O)OC[C@H]1O[C@@H](O[C@H]2[C@@H](O)[C@@H](C)O[C@@H](O[C@H]3CC[C@@]4(C)[C@@H](CC[C@]5(C)[C@@H]4C=CC46OCC7(CCC(C)(C)C[C@H]74)[C@H](O)C[C@]65C)[C@]3(C)CO)[C@@H]2O)[C@H](O)[C@@H](O)[C@@H]1O (some centres unmarked) [Acetyl-saikosaponin D] came out at 38.05

The reported measurements were obtained from paper PMC7982521.
